Test system: MDA-MB-435 melanoma
assay_details: NCI-60 one-dose screen, 48 h (100 = growth as untreated, 0 = no growth, -100 = all killed)
condition_label: 10 µM unless noted
This is part of a sample that, as a whole, favours compounds with a hit. Of some 83,000 tested, about 20% had one in any assay.
# binarize growth: threshold 90% inclusive, high side T, low side F

C=CCn1c(SCC(=O)Nc2ccc(C(=O)/C=C/c3cc(OC)c(OC)c(OC)c3)cc2)nnc1-c1c[nH]c2ccccc12    F
O=C(NCCN1CCCC1)c1ccc(-c2nc3ccc4[nH]ncc4c3c3c2CCCC3)cc1    F
NS(=O)(=O)c1ccc(Nc2nc(N/N=C/c3c[nH]c4ccccc34)nc(Nc3ccccc3)n2)cc1    F
CC(C)(C)c1ccc(CC(=O)Nc2sc3c(c2C(N)=O)CCC(=O)C3)cc1    F
Cc1nc(-c2ccccc2O)ccc1C(=O)N=Nc1c(O)[nH]c2ccc(Br)cc12    T
CCCCCc1ccc(S(=O)(=O)Nc2cccc(-c3csc(NC(=O)CN4CCN(CCO)CC4)n3)c2)cc1    F
COc1ccc(COc2ccc(/C=C3\C(=O)Nc4ccccc43)cc2OC)cc1    T

Moving on to the next molecule.
Textbook exercise: given the entry O=S(=O)(NCCCNc1nccc(-c2[nH]c(-c3ccccc3)nc2-c2ccc(Cl)c(O)c2)n1)c1cccc(F)c1 , state whether its growth is greater than or equal to 90%. F

* * *

Test system: LOX IMVI melanoma
assay_details: NCI-60 one-dose screen, 48 h (100 = growth as untreated, 0 = no growth, -100 = all killed)
condition_label: 10 µM unless noted
This is part of a sample that, as a whole, favours compounds with a hit. Of some 83,000 tested, about 20% had one in any assay.
observation_type: growth (%)
Give just the number in %; leave the unit off.

Here are 3 compounds together with their reported answers.
COc1c(N2CC3CCCNC3C2)c(F)cc2c(=O)c(C(=O)N/N=C/c3ccc(F)cc3)cn(C3CC3)c12 (centres undefined)    46.1
O=C(CSc1nc2ccccc2c(=O)n1-c1ccc(Cl)cc1)N/N=C/c1ccc(N2CCCCC2)cc1    43.5
COc1cc2nc(Cl)nc(Nc3cccc(C4=Nc5c(N)nc(N)nc5NC(c5ccc(Cl)cc5)C4)c3)c2cc1OC (centres undefined)    -52.3

Shifting focus to the compound that follows.
Consider the compound shown here: O=C1[C@H]2Cc3c([nH]c4ccccc34)[C@@H](c3ccc(Br)cc3)N2C(=O)CN1C1CCN(CC2CCCCC2)CC1 What is its recorded growth? -87.1

* * *

Below is a list of entries, each paired with its recorded growth value.
Tested on: SF-268 CNS
assay_details: NCI-60 one-dose screen, 48 h (100 = growth as untreated, 0 = no growth, -100 = all killed)
condition_label: 10 µM unless noted
This is part of a sample that, as a whole, favours compounds with a hit. Of some 83,000 tested, about 20% had one in any assay.
Number in %, nothing else.

Consider the following illustrative entries.
O=C1CC(=O)N2CSCN(C(c3ccccc3)c3nc4ncncc4[nH]3)C2=N1 (centres undefined)    103
CN(C)CCCOc1ccc2c(c1)CN(C(=O)c1cc(C(=O)N3Cc4cccc(F)c4C3)ccc1O)C2    100

Tell me reported growth for C#CCC#CCN1CCC[C@H]1C(=O)NCC(=O)OC , tested with SF-268 CNS. 108

What is its growth for SF-268 CNS? Entry: COc1ccc([C@H]2c3[nH]c4ccccc4c3C[C@H]3C(=O)N(C4CCN(Cc5c(Cl)cccc5Cl)CC4)CC(=O)N23)c(OC)c1 85.6

What growth appears in the records for this compound with SF-268 CNS? Cc1nn(-c2ccccc2)c2ncnc(N/N=C/c3ccccc3)c12 91.7

Give growth (SF-268 CNS) of the following compound: Nc1nc(Nc2ccccc2SSc2ccccc2Nc2nc(N)nc(-c3ccc4ccccc4c3)n2)nc(-c2ccc3ccccc3c2)n1 74.9

Please tell me: growth of CNC(=O)c1cc(-n2ccc3cc(NC(=O)Nc4ccc(N5CCOCC5)c(C(F)(F)F)c4)ccc32)ccn1 , system SF-268 CNS? 72.6

Quick check: growth on SF-268 CNS, item C=CCn1c(SCC(=O)Nc2ccc(C(=O)/C=C/c3ccc(Br)cc3)cc2)nnc1-c1c[nH]c2ccccc12 ? 70.7

Give growth (SF-268 CNS) of the following compound: CN(C)C(=O)c1cc(-c2ccc3ncnc(NCc4ccccc4)c3c2)cnc1N 65.7

* * *

Test system: SK-MEL-2 melanoma
assay_details: NCI-60 one-dose screen, 48 h (100 = growth as untreated, 0 = no growth, -100 = all killed)
condition_label: 10 µM unless noted
About 83,000 compounds went through this panel and 20% of them were active in at least one assay; those are over-represented in the sample as a whole.
observation_type: growth (%)
Answer format: numeric, % implied, no suffix.

These recorded examples may help you get a feel for the data.
COc1c(N2CC3CCCNC3C2)c(F)cc2c(=O)c(C(=O)N/N=C/c3ccc4c(c3)OCO4)cn(C3CC3)c12 (stereo unspecified)    103
O=C(NNc1nc2cc(F)ccc2n2c(CN3CCC(O)C3)ccc12)c1cnccn1 (stereo unspecified)    20
NC(N)=Nc1ccc(Oc2cccc(Nc3cccc(C(F)(F)F)c3)c2)cn1    64.8
COc1ccc(NC(=O)CSc2nnc(-c3ccc4nc(-c5ccc(OC)c(OC)c5)[nH]c4c3)o2)cc1OC    103
COc1cc(-c2nn(C(C)(C)C)cc2-c2ccnc(NCCCNS(=O)(=O)c3ccc(Cl)cc3)n2)ccc1Cl    82.5

We next turn to a different molecule, shown below.
Give the measured growth of NC(N)=Nc1ccc(Oc2cccc(NC(N)=Nc3ccc(Br)cc3)c2)cn1 . 84.3

* * *

Tested on: RXF 393 renal
assay_details: NCI-60 one-dose screen, 48 h
condition_label: 10 µM unless noted
This is part of a sample that, as a whole, favours compounds with a hit. Of some 83,000 tested, about 20% had one in any assay. Active and inactive are the calls of the source. The calls were made as follows: active = growth percent below 10; inactive = the rest.
Response enum: class 1 (active), class 0 (inactive)

NS(=O)(=O)c1ccc(Nc2nc(N/N=C/c3ccccn3)nc(Nc3ccccc3)n2)cc1    class 1
Nc1ccccc1NC(=O)c1ccc(NC(=O)C/C=C/c2cccnc2)cn1    class 1
Nn1c(N/N=C/c2nc3ccccc3s2)n[nH]c1=S    class 0
COC(=O)c1[nH]nc2c1C1(C(=O)N(C)c3ccccc31)C(C#N)=C(N)O2 (stereo not drawn)    class 0
CC1(C)NCCC[C@]2(C)[C@H]3C/C(=N\O)C4[C@@H]5C[C@@](C)(CO)CC[C@]5(C)CC[C@@]4(C)[C@]3(C)CC[C@@H]12 (stereo partly drawn)    class 0

Recorded test call requested for COc1ccc(-n2c(/C=C3\C(=O)Nc4ccccc43)ccc2CO)cc1 class 0

// outcome(item) with item = C#Cc1nc(C(=O)NCCC(=O)Nc2ccc(NC(=O)c3ccc(/C=C/C(=O)c4nccn4C)cc3)cc2)cs1 class 0

* * *

System: IGROV1 ovarian
assay_details: NCI-60 one-dose screen, 48 h
condition_label: 10 µM unless noted
About 83,000 compounds went through this panel and 20% of them were active in at least one assay; those are over-represented in the sample as a whole. Active and inactive are the calls of the source. Rule for the calls: active = growth percent below 10; inactive = the rest.
Please state which outcome applies, choosing from active, inactive

Answered examples (3):
O=C(NNc1nc2cc(F)ccc2n2c(CN3CC4CNCC4C3)ccc12)c1cnccn1 (stereo unspecified)    inactive
O=C1CCCc2nc(Nc3ccc(S(=O)(=O)Nc4ccc([N+](=O)[O-])cc4)cc3)ncc21    inactive
CCOC(=O)C1=NNC(c2ccc(Cl)cc2)C1C(=O)N1C(=S)NC(=O)C1CC(C)C (stereo unspecified)    inactive

Could you check what this test reported for C=C(C)[C@@H]1CC[C@]2(COP(=O)(OCC)OCC)CC[C@]3(C)[C@H](CC[C@@H]4[C@@]5(C)CCCNC(C)(C)[C@@H]5CC[C@]43C)[C@@H]12 ? active

Hello, I am checking results. What call was entered for Fc1ccc(-c2cc3nc(C(Cl)Cl)nc(-c4ccc(F)cc4)n3n2)cc1 ? inactive

Status in this test for COc1cc(-c2ccc3ncnc(NCc4ccccc4)c3c2)cnc1OC ? active

* * *

Test system: ACHN renal
assay_details: NCI-60 one-dose screen, 48 h (100 = growth as untreated, 0 = no growth, -100 = all killed)
condition_label: 10 µM unless noted
The panel holds about 83,000 compounds, 20% with a hit somewhere; the sample as a whole holds those more often.
Threshold-based label: growth under 90% gives 1.0, growth not under 90% gives 0.0.

O=C(NNc1nc2cc(F)ccc2n2c(CN3CCCC3)ccc12)c1cnccn1    1.0

Record O=C1/C(=C/C=C/c2ccco2)SC(=S)N1C1CCCCC1 : is its growth strictly below 90%? 0.0

Hello, I'm reviewing records and need to know if growth of NS(=O)(=O)c1ccc(-n2cc(CN3CCNCC3)nn2)cc1 is below 90%. Could you check? 0.0

I wonder whether O=C(Nc1cccc(C(F)(F)F)c1)c1cc(-c2ccc(F)cc2F)ccc1O has growth below 90%. Can you tell? 1.0

Decide: growth of CN1CCN(c2nc(-c3csc(-c4ccccc4)n3)cc3ccccc23)CC1 strictly below 90%? 1.0

Consider O=C(CCn1c[n+](CC(=O)c2ccc(F)cc2)c2ccccc21)Nc1cccc2cccnc12 . Does its growth lie strictly below 90%? 0.0

Say whether its growth is strictly beneath 90%. Entry: O=C(Nc1ccc2c(ccn2Cc2ccccn2)c1)c1ccnnc1 0.0

Please indicate whether the reported growth of c1n[nH]cc1-c1nc2ccc3[nH]ncc3c2c2c1CCCC2 is strictly below 90%. 1.0
